- measurement.target: T1, cynomolgus monkey C-KIT-Fc (cynomolgus monkey)
- T1 construct: also called cyno C-KIT-Fc
- assay.info: HTRF competition vs Tb-h37M IgG1
property.name: IC50 (µg/mL)
Give the quantity in µg/mL, number only.

// solved cases for IC50 follow
MH5, human IgG1 (antibody, V domains shown, IgG1; also called C-KIT-MH5; C-KIT-MHS) VH: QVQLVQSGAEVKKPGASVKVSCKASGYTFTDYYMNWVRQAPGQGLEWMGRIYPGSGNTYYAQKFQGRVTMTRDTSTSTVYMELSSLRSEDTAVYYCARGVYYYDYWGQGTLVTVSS VL: DIQMTQSPSSLSASVGDRVTITCRASQGIRTNLAWFQQKPGKAPKSLIYSASSLQSGVPSRFSGSGSGTDFTLTISSLQPEDFATYYCQQYANYPRTFGGGTKVEIK : 0.036
C-A7 (antibody, IgG1, V domains shown, IgG1; also called C-KIT-C-A7) VH: QVQLVQSGAEVKKPGASVKVSCKASGYTFTDYYMNWVRQAPGQGLEWIGRIYPGSGNTYYAQKFQGRVTMTRDTSTSTVYMELSSLRSEDTAVYYCARGVYYFDSWGQGTLVTVSS VL: DIQMTQSPSSLSASVGDRVTITCRASQGVRNNVAWFQQKPGKAPKSLIYYASSLQSGVPSRFSGSGSGTDFTLTISSLQPEDFATYYCQQYNSYPRTFGGGTKVEIK : 0.081

Request: Quick one: IC50 of F-F2 (antibody, IgG1, V domains shown, IgG1; also called C-KIT-F-F2) VH: QVQLVQSGAEVKKPGASVKVSCKASGYTFTDYYMNWVRQAPGQGLEWMGRIYPGSGNTYYAQKFQGRVTMTRDTSTSTVYMELSSLRSEDTAVYYCARGVYYQDYWGQGTLVTVSS VL: DIQMTQSPSSLSASVGDRVTITCRASQGVRTNVAWFQQKPGKAPKSLIYAASSRQSGVPSRFSGSGSGTDFTLTISSLQPEDFATYYCQQYNSYPRTFGGGTKVEIK ?
Response: 0.121

Request: Likewise for MH11 (antibody, IgG1, V domains shown, IgG1; also called C-KIT-MH11) VH: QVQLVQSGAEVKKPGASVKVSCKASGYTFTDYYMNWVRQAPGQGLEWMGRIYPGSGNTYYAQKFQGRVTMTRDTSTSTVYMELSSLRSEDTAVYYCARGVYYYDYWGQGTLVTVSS VL: DIQMTQSPSSLSASVGDRVTITCRASQGIRTNLAWFQQKPGKAPKSLIYAASSLQSGVPSRFSGSGSGTDFTLTISSLQPEDFATYYCQQYNAYPRTFGGGTKVEIK ?
Response: 0.101

These measurements were taken from patent US20200283521A1.
